test system: Poliovirus 1; test: Antiviral activity against Human poliovirus 1 10241 infected in human HeLa cells assessed as reduction in virus-induced cytopathic effect after 72 hrs by crystal violet staining-based assay; type: functional, organism-based; conditions: Enterovirus C, 10241, HeLa
READOUT KIND: pEC50
One number for each entry, as −log10 of the molar value.

Guide cases for pEC50, answers given:
Cc1ccc(C(=O)CCCCOc2ccc(C3=NCCO3)cc2)s1 :: 5.50
Cc1ccc(C(=O)CCC/C=C/c2ccc(C3=NCCO3)cc2)s1 :: 6.43

Switching to the query record.
Please report pEC50 for the following compound: `Cc1ccc(C(=O)CCCCSc2ccc(C3=NCCO3)cc2)s1`
5.09
